# Experimental target: Tyrosyl-tRNA synthetase, putative (Trypanosoma cruzi (strain CL Brener)) (UniProt Q4DSP6)
# Sequence (Q4DSP6 as listed by the source): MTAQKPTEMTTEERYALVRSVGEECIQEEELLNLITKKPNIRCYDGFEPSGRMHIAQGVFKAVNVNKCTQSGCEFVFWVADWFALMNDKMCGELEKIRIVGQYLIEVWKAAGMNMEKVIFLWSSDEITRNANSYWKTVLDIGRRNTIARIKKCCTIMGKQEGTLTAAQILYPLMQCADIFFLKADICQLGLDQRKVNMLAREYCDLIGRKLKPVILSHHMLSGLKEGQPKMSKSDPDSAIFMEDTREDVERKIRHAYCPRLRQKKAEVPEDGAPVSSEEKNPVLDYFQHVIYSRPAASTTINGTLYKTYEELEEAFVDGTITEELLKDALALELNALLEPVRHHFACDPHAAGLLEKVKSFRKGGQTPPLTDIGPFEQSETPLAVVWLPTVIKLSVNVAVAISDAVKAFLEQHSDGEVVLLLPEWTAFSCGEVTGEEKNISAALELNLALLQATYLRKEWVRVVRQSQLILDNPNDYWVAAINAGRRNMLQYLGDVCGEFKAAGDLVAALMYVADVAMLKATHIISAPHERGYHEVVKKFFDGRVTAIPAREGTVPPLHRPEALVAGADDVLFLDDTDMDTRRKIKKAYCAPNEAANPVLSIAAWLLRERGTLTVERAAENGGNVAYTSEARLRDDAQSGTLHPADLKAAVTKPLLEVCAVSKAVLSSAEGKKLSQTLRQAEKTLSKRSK
# Measurement description: Trypanosoma cruzi tyrosyl tRNA synthetase (TcYRS) SOP
# Assay type: functional
# Parameters: scale not given: direction of the effect not stated beside the values
# Settings: 30 µM
Quantity kind: Percent Effect
State the value, then name its unit.

* COc1ccc(OC)c(CN2CCCCCC2c2cccs2)c1 (stereo not given) | -32%
* Cc1cnn(CCNCc2cccnc2)c1 | 7.59%
* CCn1nc(C)c(CNC(=O)c2cn(CCC3CCCCN3)nn2)c1C (stereo not given) | 16.1%
* CC(Cn1ccnc1)NC(=O)NCCNC(=O)C(C)C (stereo not given) | 19.5%
* O=C([C@@H]1C[C@@H]2CCN(CCc3ccccc3)C[C@H]2O1)N1CCCC1 | 8.97%
* Cc1nn(C)c(N2CCOCC2)c1CNC(C)c1ccco1 (stereo not given) | 20.5%

Exam item: Fill in: Percent Effect of O=C(c1ccco1)N1C[C@@H]2OCCN(CCN3CCCC3)[C@@H]2C1 is ___
Marked response: 5.13%

Exam item: Fill in: Percent Effect of COc1ccc(C(CO)NC(=O)Nc2cccnc2)cc1 (stereo not given) is ___
Marked response: -4.88%

Exam item: Fill in: Percent Effect of CC(NC(=O)c1cccs1)C(=O)NCc1cccnc1N1CCCCC1 (stereo not given) is ___
Marked response: 7.32%

Exam item: Fill in: Percent Effect of CCn1nnc2c1C(COC)CN(C(=O)Cc1cccs1)C2 (stereo not given) is ___
Marked response: 8.54%

Exam item: Fill in: Percent Effect of Cc1ccc(CN2CC3(CCN(C(=O)c4cscn4)C3)C2)s1 is ___
Marked response: -1.24%

Exam item: Fill in: Percent Effect of O=C(CCC1CCCO1)NCc1ccnc(-n2cccn2)c1 (stereo not given) is ___
Marked response: 11.1%

Exam item: Fill in: Percent Effect of CSCC(C)(O)CNC(=O)c1ccc(Br)cc1C (stereo not given) is ___
Marked response: 6.17%

Exam item: Fill in: Percent Effect of COc1ccccc1OCC(=O)Nc1ncccc1OC(F)F is ___
Marked response: -5.13%

Exam item: Fill in: Percent Effect of Cc1ccc(N2CC3(COCCN(Cc4nccs4)C3)OCC2=O)s1 (stereo not given) is ___
Marked response: 8.97%

Exam item: Fill in: Percent Effect of Cn1nc(COc2cccnc2)c2c1CCN(c1cnccn1)C2 is ___
Marked response: 12.8%

---

# Experimental target: Protein translocase subunit SecA (Escherichia coli (strain K12))
# Measurement description: Assay to Identify E. coli SecA ATPase Inhibitors
# Assay type: functional
# Parameters: scale not given: direction of the effect not stated beside the values
# Settings: 30 µM
Potency and affinity values are given separately.
Quantity kind: Percent Effect (%)
Give the number; % is assumed, so skip it.

Examples from the recorded data:
- CC(C)n1ccnc1C1CCCN(c2ccccn2)C1 (centres undefined): -4.71
- CS(=O)(=O)N1CCOCC2(CN(Cc3ccsc3)CCO2)C1 (centres undefined): -4.51

Exam item: Return Percent Effect measured with Protein translocase subunit SecA (Escherichia coli (strain K12)) given this compound: CC(=O)N(Cc1noc(C2CC2)n1)C1CCN(Cc2cccnc2)C1 (centres undefined)
Marked response: -2.68

Exam item: Return Percent Effect measured with Protein translocase subunit SecA (Escherichia coli (strain K12)) given this compound: O=C(CCc1cc2n(n1)CCCN(C(=O)c1ccccn1)C2)NC1CC1
Marked response: -2.88

Exam item: Return Percent Effect measured with Protein translocase subunit SecA (Escherichia coli (strain K12)) given this compound: COc1ccc(OCc2cc(C(=O)N3CCN[C@H](C)C3)n[nH]2)c(Cl)c1
Marked response: -0.706

Exam item: Return Percent Effect measured with Protein translocase subunit SecA (Escherichia coli (strain K12)) given this compound: CN(C)c1ncnc2c1CCN(CC1CCOC1)CC2 (centres undefined)
Marked response: -2.84

Origin of values: ChEMBL document CHEMBL3988442
